- Experiment: NCI Yeast Anticancer Drug Screen. Data for the cln2 rad14 strain (AID 165);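 also: 0% = growth equal to vehicle treated cultures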
- Condition Notes: S. cerevisiae cln2 rad14 strain, at 50.0 µM, hits give high values
This is part of a sample that, as a whole, favours compounds with a hit. Of some 79,000 tested, about 15% had one in any assay.
Assay Readout: growth inhibition (%)
Report only the number, with the unit % understood.

Req: Tell me the measured growth inhibition of `O=C(O)c1cscc1-c1ccccc1` , please.
Resp: -19.9

Req: Follow-up entry: `CC/C(C=O)=C\NC(=O)Nc1ccccc1`
Resp: -22.9

Req: Lookup `C=CCCCCCCCCC(=O)OC`
Resp: -10.5

Req: Now the same for `NNc1ncnc2c1ncn2Cc1ccccc1`
Resp: -2.05

Req: Let us now turn to `CC1=C(c2cc(C(=O)Nc3nccs3)nc(NC#N)n2)Sc2ccccc2N1`
Resp: 15.2

Req: Try this compound too: `CCOc1nc2c(c(=O)n(C)c(=O)n2C)n1C`
Resp: 8

Req: Similarly, `Cc1ccc(C(=N)c2ccccc2Cc2ccccc2)cc1C` ?
Resp: -12.2

Req: Now this one: `CC(C)(C)NC(NC(C)(C)C)=C(C(Cl)=C(Cl)Cl)[N+](=O)[O-]`
Resp: 7.8

Req: Same again, this time with CC1CCCc2c(CC3CC(=O)NC(=O)C3)nc(N)nc21 (stereo not given)
Resp: -7.85

Req: Item: `CC(=O)N=C1N(/C=C2\C(=O)Oc3ccccc3C2=O)C(=O)/C(=C/c2ccc(NC(C)=O)cc2)N1C`
Resp: 7.7

Req: Another compound to check: O=C(NC(Cc1ccccc1)C(=O)N1CCOCC1)c1ccccc1 (stereo not given)
Resp: 3.2

Req: Input `NC(=O)CN1CC(C2=C(O)CN(CC(N)=O)C2=O)=CC1=O`
Resp: -43.5

Req: Same thing, different compound: `O=C(Nc1ccccc1)OCc1cnc2ccccc2c1`
Resp: -9.4

Req: Can you check CCCC1OC(C2CC=CCC2C)OCC1CC (stereo not given) next?
Resp: -17.9

Req: Param item: `COC(=O)c1cc2c(cc1N=Cc1ccccc1Cl)OCO2`
Resp: -1.65

Req: What do we get for COc1ccc(C2OC3=C(Nc4ccc(Cl)cc4N3)C2=O)cc1 (stereo not given) ?
Resp: 9.4

Req: Try `CCCCCC(=O)NC(=S)Nc1nn[nH]n1` next.
Resp: -8.4

Req: `CC1=C(CCCO)/C(=N\O)CCC1` , same question.
Resp: -30.4

Req: Input `Cc1c(-c2ccccc2)noc1-n1nnc2ccccc2c1=O`
Resp: -42.8

Req: Queued: `O=C(O)c1cnc2c(ccc3[nH]cccc32)c1=O`
Resp: 15.6

Req: Then `CCN(CC)CCOC(=O)c1ccc(Cl)c(Cl)c1` ?
Resp: -46.3

Req: Check `CC(C)(c1ccccc1)[Si](c1ccccc1)(c1ccccc1)c1ccccc1` too.
Resp: 3.2

Req: Same thing, different compound: `CC(=C/c1ccccc1)/C=C1/NC(=S)N(CN2CCCCCC2)C1=O`
Resp: -10.2

Req: Please answer likewise for COc1ccc(C2(C)OCCCC2([NH-])C[NH-])cc1.[Cl][Pt+2][Cl] (stereo not given)
Resp: 21.6

Req: Try this compound next: `CCOC(=O)/C(=C\c1c(C)[nH]c2ccccc12)P(=O)(OCC)OCC`
Resp: -0.3

Req: Query `N#CC(CCc1nc(N)nc(N)n1)(CCc1nc(N)nc(N)n1)c1ccccc1` next
Resp: -45.7

Req: Do the same for C1CCC2C(C1)CCCC2CC1CCCC2CCCCC21 (stereo not given) please
Resp: -17.5

Req: Same question for `Cc1cc(C)cc(Cc2ccc3ccccc3c2)c1` please.
Resp: -12.3

Req: `NC(=O)NNC(=O)Cc1ccccc1` ?
Resp: 0.55

Req: Can you handle `CCCCn1cnc2ccc(N)cc2c1=O` next?
Resp: -1.7

Req: Input `Brc1cc2[nH]c(-c3ccccc3)c(Br)c2c(Br)c1Br`
Resp: 39.2

Req: Request: COC(NC(N)=O)C(=O)O (stereo not given)
Resp: -0.9

Req: Repeat with `COCCOC(=O)c1ccc(C(N)=NC2CCCCC2)cc1`
Resp: 0.95

Req: What do you have for `C[C@@H]1CC[C@]2(C(=O)O)CC[C@]3(C)C(=CC[C@@H]4[C@@]5(C)CC[C@H](O)C(C)(C)[C@@H]5CC[C@]43C)[C@@H]2[C@]1(C)O` ?
Resp: 13.5

Req: // next record `COC(=O)c1c(C(=O)c2ccccc2)nn2c(-c3ccccc3)c(-c3ccccc3)c(-c3ccccc3)c(-c3ccccc3)c12`
Resp: 7.05

Req: What would you report for `O=C(CC(=O)C(F)(F)F)c1ccc2c(c1)Cc1ccccc1-2` ?
Resp: 14.9

Req: Further, for `COC1=Cc2nc3ccccc3nc2OC1(C)C` ?
Resp: -16.4

Req: What would you report for COc1ccc(C2C/C(=N/O)c3ccccc3O2)cc1 (stereo not given) ?
Resp: -93.6

Req: Input `CN(C)c1ccc(S(=O)(=O)c2ccc(N(C)C)c([N+](=O)[O-])c2)cc1[N+](=O)[O-]`
Resp: 0.45

Req: Can you check CON(C)S(=O)c1ccc([N+](=O)[O-])cc1 (stereo not given) next?
Resp: -15.6

Attribution: PubChem BioAssay (NCI)
